system: MS2 coat protein; assay: apparent KD of MS2 coat protein; higher = weaker reporter binding; conditions: Eterna round: R107; input ligand: arginine 13.2 mM
Listed next: entries and their corresponding apparent KD of MS2 coat protein.
# answer = value followed by unit

Worked cases, answers included:
sequence-code: AUCUUUGACGAUCUGGGAAAACCAGAUCGGCGAGGACCGGUACGGCCGCCACUCGUGUAUAAUAUACAUGAGGAUCACCCAUGUA [#19 Tryptophan A Same State]
assay-target: MS2 coat protein
apparent KD of MS2 coat protein: 27.3 nM
//
sequence-code: CUAUAAUAUAGAAGGAGCGUCGAAAAUGGGUAAACAUGAGGAUCACCCAUGUAAAGGGAACGACAGGUAGGUCGCUAUAUUAUAG [AstromonsSSArgB#12]
assay-target: MS2 coat protein
apparent KD of MS2 coat protein: 181 nM

Sure, the documented apparent KD of MS2 coat protein for CUGGCAGGAUGAUCCGCUGUCAGGGCUGAUACCAGCCACGAAAGUGGCCCUUGGCAGCAGCAAACAUGAGGAUCACCCAUGUAAA [(T)''-(M)'-(T)'-(Theo)-(Ms2)_Design2] is 54.7 nM

----------
tested on: MS2 coat protein; assay: apparent KD of MS2 coat protein; higher = weaker reporter binding; settings: Eterna round: R107; input ligand: arginine 13.2 mM
apparent KD of MS2 coat protein by entry:
Numeric answer only, unit nM assumed.

sequence-code: ACAUGAGACAUGGAUACCAGCGACAUGAGGAUCACCCAUGUAUGAGGAUCACCCAUGUUAUGCCCUUGGCAGCCACAAACAUGAG [.PLMULLINP]
assay-target: MS2 coat protein
endpoint-result: 19.8

sequence-code: UGGGUCGGAUGAGUAAAUUGUCGGACUCAUCGAGGACCGGUACGGCCGCCACUCGGUUGUACAUGAGGAUCACCCAUGUCAGGGU [#1 Same State - Tryptophan A Attempt #17 (HarryS)]
assay-target: MS2 coat protein
endpoint-result: 47.4

sequence-code: UGACAUUGCUCAGAUACCAGACAUGAGGAUCACCCAUGUACCAAGAAAACGUACAAUAAUGUCCCUUGGCAGCUGAGCAAUGUCU [TheoBX 9 #MS2Left #Theo2]
assay-target: MS2 coat protein
endpoint-result: 64.8

sequence-code: UGUAACAUGAGGAUCACCCAUGUGAGUGAUACCAGACUAGUGUUGGUCCCUUGGCAGCACGCUGGGCGAGUGUGUAGUCUAUGCG [Same State - Theophylline A (Freestyle 17)]
assay-target: MS2 coat protein
endpoint-result: 64.5

Turning to the following sequence.
Recorded apparent KD of MS2 coat protein (sequence AACAUGAGGAUCACCCAUGUCCCAUGUGAACGAGGACCGGUACGGCCGCCACUCGACCGAGGCGGCACAUGAGGAUCACCCGCAU [whbob_SS_trypto A_2s14] ): 161

----------
system: MS2 coat protein; test: apparent KD of MS2 coat protein; higher = weaker reporter binding; settings: Eterna round: R107; input ligand: theophylline 20 uM
Documented apparent KD of MS2 coat protein across a set of sequences
Record the value in nM, omitting the unit from your answer.

Below: 5 sequences and their reported apparent KD of MS2 coat protein.
sequence-code: UAAUCUGGUCUUCGAUAGGUGAUCCUCAAACGAGGACCGGUACGGCCGCCACUCGAUAACAUGAGGAUCACCCAUGUACGAGUGA [|T'-M'-Trp-Ms2|_Design16b]
units-text: nM
apparent KD of MS2 coat protein: 155
//
sequence-code: GCUAGUGGCAGAAGGAGCGACAUUAAAAGUGGUCGAUACAUGAGGAUCACCCAUGUACUAUGUCAGGUAGGUCGCUGCCACUAGC [EAB NP+V+V2 #4 +-Same Structure]
units-text: nM
apparent KD of MS2 coat protein: 39.1
//
sequence-code: UCUUACUUGGUAGAUACCAGCGUGUUAUCUUUCUUUUGACAUGAGGAUCACCCAUGUAUAUGCCCUUGGCAGCUGCGUAGUGUGU [#03 Same State - Theophylline B]
units-text: nM
apparent KD of MS2 coat protein: 35.7
//
sequence-code: GUUGUAUACUCGGCCGCCACUGAGAGAGUCAUGUGAACAUGAGGAUCACCCAUGUAAUAUAUAUACAGGACCGGGAGUGUGGUAA [4.H]
units-text: nM
apparent KD of MS2 coat protein: 16.5
//
sequence-code: AAGGUGAUCCCAGAUACCAGCCUAACAUGAGGAUCACCCAUGUUUGGGACGAAAGUCCCAGGCCCUUGGCAGCUGGGUUGCCAAG [SSTheo B #17]
units-text: nM
apparent KD of MS2 coat protein: 131

Record GGUUGGUGUGGAGACAUAUUGAUCACUGAAGGAGCGGGAAUAAACCCAGGUAGGUCGCAGAGAUCCACAUGAGGAUCACCCAUGU [!0.Q] ; system MS2 coat protein; apparent KD of MS2 coat protein = 68.9

Result for UUUAUUAUUGACUCGUUUUGGUAUUAAGAACGAGGACCGGUACGGCCGCCACUCGUGAUAUACAUGAGGAUCACCCAUGUUAGCA [JR_Nu_SSTryptoA_Sub021] , tested on MS2 coat protein, apparent KD of MS2 coat protein: 19.4

# lookup: AUGCACGGGCUAAUCUGCGAUUGGCACGAUACCAGAGAUCAAGACCUCCCUUGGCAGCGUGUCACAUGAGGAUCACCCAUGUGGA [theeternabot_exclusion_MS2_Theo_A_40] on MS2 coat protein, apparent KD of MS2 coat protein = 127

Entry CGUGUCGUAACUGAUACCAGUGUACUGACAUGAGGAUCACCCAUGUUGGGUUUUGUUGUACACCCUUGGCAGCAGAAUCGAUACG [AstrosExyTheB#7] under MS2 coat protein had apparent KD of MS2 coat protein of 94

Fill in: MS2 coat protein apparent KD of MS2 coat protein for GGAUAGGACACGGCCGCCACUAGCUAGGAUACUAGCAACAUUUCCUCAUAUGAGGAUCACCCAUAUAGGACCGGGUGUCCUAUCG = 389

So the reported apparent KD of MS2 coat protein for AUAUUUAACGGAAGGAGCGCGGAUAAUAAAGUGGGUAAACAUGAGGAUCACCCAUGUAAACCGCAGGUAGGUCGCCGAUAUAUAU [AstrosEXyARgB#7] , on MS2 coat protein, turned out to be 54.8

Form field apparent KD of MS2 coat protein for item AACCGAGGCUAUCCUCUCCGCCUAUGUGAUACCAGAAUAAUUUUAUUCCCUUGGCAGCAUGACAUGAGGAUCACCCAUGUCUCUU [SSTheo A #11] on MS2 coat protein: 19.4

Field apparent KD of MS2 coat protein (system: MS2 coat protein) for entry GCUGGGUGCGCAAGGACCUGGCGUUGCGAUACCAGCACGGUAACGUGCCCUUGGCAGCGCACAUGAGGAUCACCCAUGUGGUGUU [#1 Exclusion - Theophylline A Attempt #19 (HarryS)] = 360

Lab note: sequence AGCUGGGAUCCUCAGCGUCAAAGACGCAGUCGAGGACCGGUACGGCCGCCACUCGACACGAGGAUCACCCGUGUCAUUCCCAGCA [TrypAX 1 #SwitchBubble #AlternativeMS2 #MS2Late #CuTurnoff] tested on MS2 coat protein; recorded apparent KD of MS2 coat protein was 387

Response field apparent KD of MS2 coat protein (MS2 coat protein) for item AAAACAAACUCGGCCGCCACUCCCUCCCACCCAAGGACAUGAGGAUCACCCAUGUGGCAAAGCCCGAGGACCGGGAGAAACAAAA [Same State - Trytophan B] : 28.3
